Cited source for all entries: patent US10626113B2

- assay notes: Pharmacokinetic study in mice
- Format: in vivo
- condition context: male, C57Bl6, mouse, brain/plasma, ip, 25 mg/kg, 25 mg/kg i.p.
recorded endpoint: brain/plasma Cmax ratio

brain/plasma Cmax ratio reading for COc1ccc(CNc2c3c(nc4ccc(C#N)cc24)CCN(C(C)=O)C3)cc1Cl : 0.31

###

- tested on: PDE5 (Homo sapiens (Human))
- assay notes: PDE5 inhibition assay (BPS PDE assay kit, fluorescence polarization)
- Assay type: biochemical
- condition context: Table 3
- Protocol: Materials and Methods: PDE5 inhibition was assayed at BPS Bioscience (San Diego, Calif.) using BPS PDE assay kits (BPS Catalog number 60300, enzyme lot 090810). Test compounds were supplied as liquid solutions of 10 mM concentration in DMSO. Sildenafil, used as a standard was dissolved in DMSO. […] Data analysis: PDE activity assays were performed in duplicate at each concentration. Fluorescence intensity is converted to fluorescence polarization using the Tecan Magellan6 software. […]
recorded endpoint: IC50 (nM)
Numeric answer only, unit nM assumed.

Reading of IC50 for [2H]C([2H])(Nc1c2c(nc3ccc(C#N)cc13)CCN(C(C)=O)C2)c1ccc(OC)c(Cl)c1 with PDE5 (Homo sapiens (Human)): 0.044
